assay: protein stability index of a GFP-peptide fusion (GPS, HEK-293T) (PSI 1-6); higher = more stable; conditions: treatment: MLN4924 1 uM, 8 h; c terminus: a fixed tail appended;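 note: 24-mer peptide tiles fused after GFP, lentivirally expressed, FACS-sorted into six equal bins by GFP/DsRed ratio, decoded by Illumina sequencing, PSI is the read-weighted mean bin number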
quantity.kind: protein stability index
Write the number on its own, no unit after it.

>  <monomer.sequence>
SFACQCPEGHVLRSDGKTCAKLDS [MATN2]

>  <protein stability index>
4.88

$$$$
>  <monomer.sequence>
IQPDDLINQLTFIMDANQTYLVSE [FAF2]

>  <protein stability index>
2.37

$$$$
>  <monomer.sequence>
IYRRYRQFHALQSKLEERFGPDSK [NCF4]

>  <protein stability index>
2.61

$$$$
>  <monomer.sequence>
VNNTTLTNSTPLRAACFDGHLEIV [FEM1C]

>  <protein stability index>
2.61

$$$$
>  <monomer.sequence>
ALRQTVEADVNGLRRVLDELTLAR [KRT16]

>  <protein stability index>
3.06

$$$$
>  <monomer.sequence>
SAGKRGPDRGSPEYRQRRERNNIA [CEBPD]

>  <protein stability index>
4.41

$$$$

Recorded protein stability index (sequence CNQCGKCFIQSSHLIRHQITHTRE [ZNF8] ): 4.47

Recorded protein stability index (sequence PKTSGTRATSLGRPEEEEDELAHR [CPOX] ): 5.42

Recorded protein stability index (sequence ELAEIFRASGEHVTDEEIESLMKD [TNNC2] ): 5.34

Recorded protein stability index (sequence ILDDGTISAHKPLLISSCDWMAAM [RHOBTB2] ): 2.12

Recorded protein stability index (sequence RTKQVLHTFKTRFTQPLLPAFTVW [FSD1] ): 2.44

Recorded protein stability index (sequence QLEQPEKMPVLKAEASHYNSDLNN [RHOBTB3] ): 4.94

Recorded protein stability index (sequence VGLAVVNGQLMAVGGFDGTTYLKT [KLHL20] ): 2.23

###

assay: protein stability index of a GFP-peptide fusion (GPS, HEK-293T) (PSI 1-6); higher = more stable; conditions: treatment: DMSO; c terminus: a fixed tail appended
Outcome label depends on protein stability index relative to 3: at/above gives Y, below gives N.

>  <monomer.sequence>
ELAEIFRASGEHVTDEEIESLMKD [TNNC2]

>  <category.label>
Y

$$$$
>  <monomer.sequence>
RTTVFQYPVGWPPVQELPPSLRAP [ZMAT5]

>  <category.label>
N

$$$$
>  <monomer.sequence>
QKFDTLYAILDEKKSELLQRITQE [TRIM63]

>  <category.label>
Y

$$$$
>  <monomer.sequence>
FQTLMFLVRDWSFPYEYSYGLQGG [ATL3]

>  <category.label>
Y

$$$$
>  <monomer.sequence>
SNNITLREDQLDTVLAVLEDSSRD [INTS4]

>  <category.label>
Y

$$$$

Okay, now this sequence:
### Prompt Reported protein stability index reaches at least 3 for DIEQFFNIGDSSSGLIQTVFISSY [SPNS1] ?
### Response N

###

assay: protein stability index of a GFP-peptide fusion (GPS, HEK-293T) (PSI 1-6); higher = more stable; conditions: treatment: MLN4924 1 uM, 8 h; c terminus: a fixed tail appended
quantity.kind: protein stability index
Write the number on its own, no unit after it.

Previously resolved entries follow.
>  <monomer.sequence>
MHLKPYWKLQKKEHPPEVSRETQR [FBXO34]

>  <protein stability index>
3.78

$$$$
>  <monomer.sequence>
TRVPRAAIVFTDGRAQDDVSEWAS [MATN2]

>  <protein stability index>
4.48

$$$$

In the following, a different sequence is considered.
Recorded protein stability index (sequence TTSEEAVGGATPDQTTSEETVGGA [HDAC6] ): 5.57

###

Measured protein stability index by item
experiment: protein stability index of a GFP-peptide fusion (GPS, HEK-293T) (PSI 1-6); higher = more stable; details: treatment: DMSO; c terminus: a fixed tail appended

Previously resolved entries follow.
>  <monomer.sequence>
KFLIWDTAGQERFRALAPMYYRGS [RAB22A]

>  <protein stability index>
2.39

$$$$
>  <monomer.sequence>
VNDHLLNFVRERTLDKRWRVRKEA [PDS5B]

>  <protein stability index>
2.74

$$$$
>  <monomer.sequence>
FDKKDRRALHWAAYMGHLDVVALL [ANKRD44]

>  <protein stability index>
2.61

$$$$
>  <monomer.sequence>
EERNRFTETREEDVTDEHGEREPF [FAM9B]

>  <protein stability index>
5.62

$$$$
>  <monomer.sequence>
AMQASKATKITLSAIYKWITDNFC [FOXJ1]

>  <protein stability index>
2.28

$$$$
>  <monomer.sequence>
LLFAGSSLASQVHAAAVNGDKGAL [INVS]

>  <protein stability index>
2.61

$$$$
>  <monomer.sequence>
KLERLKQQNEDLRRMAESLRIPEG [FUT8]

>  <protein stability index>
3.87

$$$$
>  <monomer.sequence>
LQRHADEFLLDLGHHERSIMTDLY [FUT8]

>  <protein stability index>
2.55

$$$$

Recorded protein stability index (sequence DETFLATSFLQHPWDESGSGCLPP [FOXJ1] ): 4.15

Recorded protein stability index (sequence EDVEDHYEMGEELGSGQFAIVRKC [DAPK3] ): 5.06

Recorded protein stability index (sequence PGFDSSVYSDLCEAAEAVRPEERK [ADAMTSL2] ): 5.42

Recorded protein stability index (sequence NCGLEEKIANLGSCNDSKLEFRSF [S100A14] ): 2.25

Recorded protein stability index (sequence VNNTTLTNSTPLRAACFDGHLEIV [FEM1C] ): 2.76

###

assay: protein stability index of a GFP-peptide fusion (GPS, HEK-293T) (PSI 1-6); higher = more stable; conditions: treatment: DMSO; c terminus: native
quantity.kind: protein stability index
Write the number on its own, no unit after it.

>  <monomer.sequence>
RLTREVEATRRALIDRMVNLHQA [DDIT3]

>  <protein stability index>
3.44

$$$$
>  <monomer.sequence>
MLIEELYAFMPARSQDPKKPSRV [CBY2]

>  <protein stability index>
2.57

$$$$
>  <monomer.sequence>
CPLKNPTFLDYVRPRSWTCRYVF [SOAT1]

>  <protein stability index>
3.22

$$$$
>  <monomer.sequence>
WYSRLQACQWGGNFLAFSVRRVS

>  <protein stability index>
3.17

$$$$

Recorded protein stability index (sequence REEEEQVRAHAPRGNAPPRGKGL [KCNG1] ): 3.15

Recorded protein stability index (sequence YSLRILIGDPPHHDHHDEFCLMP [BEX5] ): 2.62

Recorded protein stability index (sequence GSACSLLCCCGRDPSEEHSLLVN [MCOLN1] ): 2.3

Recorded protein stability index (sequence WQLYYSKKLLDSWFTSTQEKKHK [JAGN1] ): 2.28

Recorded protein stability index (sequence LKYIGMAKREINKLLKQKEKKNE [ARL6IP1] ): 3.7

###

test: protein stability index of a GFP-peptide fusion (GPS, HEK-293T) (PSI 1-6); higher = more stable; details: treatment: MLN4924 1 uM, 8 h; c terminus: a fixed tail appended
quantity.kind: protein stability index
Write the number on its own, no unit after it.

>  <monomer.sequence>
FNPPPSRPLQVNTADHRIYSYVVS [FAF2]

>  <protein stability index>
2.92

$$$$
>  <monomer.sequence>
LSLPYLPSGTPELEVPKPGQPSEP [CHIT1]

>  <protein stability index>
5.21

$$$$

In the following, a different sequence is considered.
Recorded protein stability index (sequence CMPLVCTAIFYTLMTCEMLNRRNG [EDNRA] ): 3.58

###

Measured protein stability index by item
test: protein stability index of a GFP-peptide fusion (GPS, HEK-293T) (PSI 1-6); higher = more stable; details: treatment: DMSO; c terminus: a fixed tail appended
Write the number on its own, no unit after it.

Previously resolved entries follow.
>  <monomer.sequence>
RDGLAEDLAALKQRLEEETRKRED [PRPH]

>  <quantity.kind>
protein stability index

>  <numeric.value>
5.33

$$$$
>  <monomer.sequence>
EERATRLAELQEQLKAVHEQLAAL [BRD3]

>  <quantity.kind>
protein stability index

>  <numeric.value>
4.59

$$$$
>  <monomer.sequence>
SGGGRDSSSSILRWLPEKRANPCL [ELOA2]

>  <quantity.kind>
protein stability index

>  <numeric.value>
3.11

$$$$

Recorded protein stability index (sequence PPPTTAPHKERYFDRVDENNPEYL [ADD1] ): 5.06

Recorded protein stability index (sequence ESKLLGSNSSRMYFTQTLLPGLAG [MLH1] ): 3.12

Recorded protein stability index (sequence HSSSRDSHLSNGLDPVAETAIRQL [C2CD2L] ): 4.42

Recorded protein stability index (sequence YISPELCEGKPYNQKSDIWALGCV [NEK8] ): 2.19

Recorded protein stability index (sequence SWWADLRALARNLIFGLITCLTGV [SPNS1] ): 3.88

Recorded protein stability index (sequence RDVPESPQHAADTPKSGEPRVPEE [YJU2B] ): 5.44

Recorded protein stability index (sequence KKEELLFDDGDDIMATLGFGDSPK [FBF1] ): 4.54
